The measurements presented in this section are drawn from patent US20190367516A1.

Measured EC50 by item
- experimental system: human M2 receptor (Homo sapiens)
- Sequence (P08172 whole entry): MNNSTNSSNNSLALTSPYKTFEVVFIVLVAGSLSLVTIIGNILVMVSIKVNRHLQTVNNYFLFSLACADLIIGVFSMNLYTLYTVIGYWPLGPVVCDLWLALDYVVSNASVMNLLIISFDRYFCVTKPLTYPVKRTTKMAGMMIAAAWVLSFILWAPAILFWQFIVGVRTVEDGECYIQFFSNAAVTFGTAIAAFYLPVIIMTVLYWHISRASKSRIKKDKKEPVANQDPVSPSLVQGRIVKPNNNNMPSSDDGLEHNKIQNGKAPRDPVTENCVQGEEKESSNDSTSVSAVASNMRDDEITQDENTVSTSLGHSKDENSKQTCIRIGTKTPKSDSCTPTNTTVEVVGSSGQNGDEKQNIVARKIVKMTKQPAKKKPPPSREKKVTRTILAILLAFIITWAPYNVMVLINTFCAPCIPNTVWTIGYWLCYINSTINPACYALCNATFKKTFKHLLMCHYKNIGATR
- assay context: Receptor activity EC50, M2-GIRK1/4 activation test, acetylcholine at EC20; allosteric potency; in some cases mean values from two or more determinations
Please give a number only; it is taken to be in µM.

Study these solved cases before continuing.
{"compound": "O=C(NC(c1c(F)cccc1F)C(F)(F)F)c1cn(-c2ccc(F)cc2F)c2nc(N3CC[C@H](F)C3)ccc2c1=O (mixture of isomers) [Example 241]", "experimental system": "human M2 receptor (Homo sapiens)", "endpoint unit": "µM", "EC50": 0.021}
{"compound": "O=C(Nc1c(Cl)cccc1Cl)c1cn(-c2ccc(F)cc2F)c2nc(N3C[C@@H](O)CC3=O)ccc2c1=O", "experimental system": "human M2 receptor (Homo sapiens)", "endpoint unit": "µM", "EC50": 0.039}

Provide human M2 receptor (Homo sapiens) EC50 reading for CC[C@@H](NC(=O)c1cn(-c2ccc(F)cc2F)c2nc(N3CCOC(C(F)F)C3)ccc2c1=O)C(F)(F)F (single isomer, unassigned) [Example 265] . 23.7

---

pEC50 listing for selected compounds.
- experimental system: UniProt:P08172
- assay context: Receptor activity EC50, M2-GIRK1/4 activation test, acetylcholine at EC20; allosteric potency; in some cases mean values from two or more determinations
The scale used: pEC50 is minus the common logarithm of the concentration in molar units.

The following compounds have reported results that may help.
{"compound": "CO[C@@H]1CCN(c2ccc3c(=O)c(C(=O)NC45CCC(C)(CC4)CC5)cn(-c4ccc(F)cc4F)c3n2)C1", "pEC50": 7.24}
{"compound": "CC[C@@H](NC(=O)c1cn(-c2c(F)cccc2F)c2nc(N3CCC(O)C3=O)ccc2c1=O)C(F)(F)F (single isomer, unassigned) [Example 293]", "pEC50": 7.14}

Now let's try a different one.
Specify pEC50 for O=C(NC(c1cccc(F)c1)C(F)(F)F)c1cn(-c2ccc(F)cc2F)c2nc(N3C[C@@H](O)CC3=O)ccc2c1=O (mixture of isomers) , system UniProt:P08172. 7.48

---

// reported pEC50 for each item listed
- experimental system: human M2 receptor (Homo sapiens)
- assay context: Receptor activity EC50, M2-GIRK1/4 activation test, acetylcholine at EC20; allosteric potency; in some cases mean values from two or more determinations
Schema: pEC50 number; meaning minus log10 of the concentration expressed in molar units.

Past entries and their recorded results:
{"molecule": "O=C(NC(c1ccccc1Cl)C(F)(F)F)c1cn(-c2ccc(F)cc2F)c2nc(N3CC[C@H](O)C3=O)ccc2c1=O (stereo partly drawn)", "experimental system": "human M2 receptor (Homo sapiens)", "pEC50": 7.13}
{"molecule": "CC[C@H](NC(=O)c1cn(-c2c(F)cccc2F)c2nc(N3CCC(C)(O)C3)ccc2c1=O)C(F)(F)F (stereo partly drawn)", "experimental system": "human M2 receptor (Homo sapiens)", "pEC50": 7.16}
{"molecule": "CC[C@@H](NC(=O)c1cn(-c2c(Cl)cc(F)cc2Cl)c2nc(N3C[C@@H](O)CC3=O)ccc2c1=O)C(F)(F)F", "experimental system": "human M2 receptor (Homo sapiens)", "pEC50": 7.28}

Given the molecule `COC(=O)N1CCN(c2ccc3c(=O)c(C(=O)NC45CC6CC(CC(C6)C4)C5)cn(-c4ccc(F)cc4F)c3n2)CC1` , write its reported pEC50. 7.62

Using known records, supply pEC50 for CC[C@@H](NC(=O)c1cn(-c2ccc(F)cc2F)c2nc(N3CC(C)CC3=O)ccc2c1=O)C(F)(F)F (single isomer, unassigned) [Example 303] 7.22

Please indicate pEC50 recorded for O=C(NC12CC3CC(CC(C3)C1)C2)c1cn(-c2ccc(F)cc2F)c2nc(N3CCCC(CCO)C3)ccc2c1=O (stereo not drawn) 6.80
